# credit: patent US5210193A

- Tested on: Escherichia coli CMC 84-16
- test: in vitro antibacterial MIC, agar plate dilution
- Format: cell-based
- run parameters: Escherichia coli, CMC8416, 18 h, 35° C., read-out: MIC
metric: MIC (µg/mL)
Use µg/mL as the unit, but write only the number.

molecule="CCn1cc(C(=O)O)c(=O)c2c(F)c(F)c(N3CCN(C)CC3)c(F)c21 [Example 85]" metric=MIC value_units=µg/mL test_value=0.06

Could you now look at the following molecule, please?
Query block: Look at this molecule and give its reported MIC. CCn1cc(C(=O)O)c(=O)c2cc(F)c(N3CCNC(CF)C3)c(F)c21 (racemic) [Example 63]
Result block: 0.06
